- Tested on: YAPC
- ASSAY METHOD TEXT: crystal violet proliferation assay
- Type: cell-based
- REPORTED CONDITIONS: Homo sapiens, 96 h, normoxia, read-out: GI50 CV mean
METRIC: GI50 (µM)
Just the number in µM, nothing appended.

Past entries and their recorded results:
smiles_notation=CCOc1c2c(c3ccc(C(=O)N4CCN(C(=O)c5ccc(F)cc5)CC4)cn13)SSSSS2 test_value=0.411
smiles_notation=CCOc1c2c(c3ccc(C(=O)N(CC)CC)cn13)SSSSS2 test_value=0.608
smiles_notation=CCOc1c2c(c3ccc(C(=O)N4CCCCC4)cn13)SSSSS2 test_value=0.628

get_value(item= CCOc1c2c(c3ccc(C(=O)N4CCN(S(=O)(=O)c5ccc(C)cc5)CC4)cn13)SSSSS2 , readout=GI50) returns 1.17

get_value(item= CCOc1c2c(c3ccc(C(=O)N4CCOCC4)cn13)SSSSS2 , readout=GI50) returns 0.35

get_value(item= CCOc1c2c(c3cnc4[nH]c(-c5ccc(OC)cc5)cc4n13)SSSSS2 , readout=GI50) returns 0.405

---

- SUBJECT OF TEST: bovine erythrocyte GPx1 (Bos taurus)
- Construct: the isolated enzyme from bovine erythrocytes; purchased Sigma-Aldrich (Taufkirchen, Germany); host or cells: isolated from bovine erythrocytes
- Sequence (P00435 whole entry): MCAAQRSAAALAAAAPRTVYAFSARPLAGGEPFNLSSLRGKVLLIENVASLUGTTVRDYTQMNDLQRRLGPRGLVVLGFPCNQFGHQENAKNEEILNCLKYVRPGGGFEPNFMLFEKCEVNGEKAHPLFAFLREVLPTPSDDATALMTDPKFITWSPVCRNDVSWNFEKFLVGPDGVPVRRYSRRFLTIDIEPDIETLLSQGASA
- ASSAY METHOD TEXT: GPx1 enzyme activity assay (NADPH-coupled, t-BHP substrate)
- Type: biochemical
- REPORTED CONDITIONS: relative IC50 (inflection point of dose-response graph); t-BHP substrate; n ≥ 3; read-out: Rel. IC50 (CI 95%)
Binary call on IC50 with cut-off 600 nM: strictly below means Y, and equality or higher means N.

q: IC50 strictly < 600 nM for this molecule? CCOc1c2c(c3ccc(C(=O)N4CCOCC4)cn13)SSSSS2 [Compound 3]
a: Y

q: IC50 strictly < 600 nM for this molecule? CCOc1c2c(c3ccc(C(=O)N4CCN(S(=O)(=O)c5ccc(C)cc5)CC4)cn13)SSSSS2 [Compound 6]
a: N

q: IC50 strictly < 600 nM for this molecule? CCOc1c2c(c3ccc(C(=O)N4CCN(C(=O)c5ccc(F)cc5)CC4)cn13)SSSSS2 [Compound 5]
a: N

q: IC50 strictly < 600 nM for this molecule? CCOc1c2c(c3cnc4[nH]c(-c5ccc(OC)cc5)cc4n13)SSSSS2 [Compound 1]
a: N

q: IC50 strictly < 600 nM for this molecule? CCOc1c2c(c3ccc(C(=O)N4CCCCC4)cn13)SSSSS2 [Compound 2]
a: N

---

- Test system: HAP-1, HAP-1.KO.GPx1, and Siso
- ASSAY METHOD TEXT: alkaline Comet assay (summary)
- Type: cell-based, human
- Design: key: no impact (0); weak impact (+); strong impact (++)
- REPORTED CONDITIONS: summary grade
METRIC: Comet formation

smiles_notation=CCOc1c2c(c3ccc(C(=O)N4CCN(S(=O)(=O)c5ccc(C)cc5)CC4)cn13)SSSSS2 metric="Comet formation" test_value=+
smiles_notation=CCOc1c2c(c3ccc(C(=O)N4CCOCC4)cn13)SSSSS2 metric="Comet formation" test_value=++
smiles_notation=CCOc1c2c(c3ccc(C(=O)N(CC)CC)cn13)SSSSS2 metric="Comet formation" test_value=++
smiles_notation=CCOc1c2c(c3cnc4[nH]c(-c5ccc(OC)cc5)cc4n13)SSSSS2 metric="Comet formation" test_value=+
smiles_notation=CCOc1c2c(c3ccc(C(=O)N4CCCCC4)cn13)SSSSS2 metric="Comet formation" test_value=+

get_value(item= CCOc1c2c(c3ccc(C(=O)N4CCN(C(=O)c5ccc(F)cc5)CC4)cn13)SSSSS2 , readout=Comet formation) returns ++

---

- System: HAP-1
- ASSAY METHOD TEXT: MTT cell viability assay
- Format: cell-based
- REPORTED CONDITIONS: Homo sapiens, HAP1, 48 h, hypoxic (1% O2), read-out: IC50 MTT-H mean
METRIC: IC50 (nM)
Just the number in nM, nothing appended.

Past entries and their recorded results:
smiles_notation=CCOc1c2c(c3ccc(C(=O)N(CC)CC)cn13)SSSSS2 test_value=832
smiles_notation=CCOc1c2c(c3ccc(C(=O)N4CCN(C(=O)c5ccc(F)cc5)CC4)cn13)SSSSS2 test_value=661
smiles_notation=CCOc1c2c(c3ccc(C(=O)N4CCOCC4)cn13)SSSSS2 test_value=657
smiles_notation=CCOc1c2c(c3ccc(C(=O)N4CCCCC4)cn13)SSSSS2 test_value=847
smiles_notation=CCOc1c2c(c3ccc(C(=O)N4CCN(S(=O)(=O)c5ccc(C)cc5)CC4)cn13)SSSSS2 test_value=1320

Kindly consider the entry below.
get_value(item= CCOc1c2c(c3cnc4[nH]c(-c5ccc(OC)cc5)cc4n13)SSSSS2 , readout=IC50) returns 384

---

- Test system: HAP-1.KO.GPx1
- ASSAY METHOD TEXT: MTT cell viability assay
- Format: cell-based
- REPORTED CONDITIONS: Homo sapiens, 48 h, hypoxic (1% O2), read-out: IC50 MTT-H mean
METRIC: pIC50
API: returns pIC50 as number; meaning -log10 of concentration in mol/L.

molecule="CCOc1c2c(c3ccc(C(=O)N4CCOCC4)cn13)SSSSS2 [Compound 3]" test_value=6.04
molecule="CCOc1c2c(c3ccc(C(=O)N4CCN(S(=O)(=O)c5ccc(C)cc5)CC4)cn13)SSSSS2 [Compound 6]" test_value=5.74

get_value(item= CCOc1c2c(c3ccc(C(=O)N4CCN(C(=O)c5ccc(F)cc5)CC4)cn13)SSSSS2 [Compound 5] , readout=pIC50) returns 6.04

get_value(item= CCOc1c2c(c3cnc4[nH]c(-c5ccc(OC)cc5)cc4n13)SSSSS2 [Compound 1] , readout=pIC50) returns 6.37

get_value(item= CCOc1c2c(c3ccc(C(=O)N(CC)CC)cn13)SSSSS2 [Compound 4] , readout=pIC50) returns 5.93

get_value(item= CCOc1c2c(c3ccc(C(=O)N4CCCCC4)cn13)SSSSS2 [Compound 2] , readout=pIC50) returns 5.93

---

- Test system: RT-4
- ASSAY METHOD TEXT: crystal violet proliferation assay
- Type: cell-based
- REPORTED CONDITIONS: Homo sapiens, 96 h, normoxia, read-out: GI50 CV mean
Binary call on GI50 with cut-off 400 nM: strictly below means True, and equality or higher means False.

compound="CCOc1c2c(c3ccc(C(=O)N4CCOCC4)cn13)SSSSS2 [Compound 3]" assigned_class=True
compound="CCOc1c2c(c3ccc(C(=O)N4CCN(C(=O)c5ccc(F)cc5)CC4)cn13)SSSSS2 [Compound 5]" assigned_class=True
compound="CCOc1c2c(c3cnc4[nH]c(-c5ccc(OC)cc5)cc4n13)SSSSS2 [Compound 1]" assigned_class=True

q: GI50 strictly < 400 nM for this compound? CCOc1c2c(c3ccc(C(=O)N(CC)CC)cn13)SSSSS2 [Compound 4]
a: False

q: GI50 strictly < 400 nM for this compound? CCOc1c2c(c3ccc(C(=O)N4CCN(S(=O)(=O)c5ccc(C)cc5)CC4)cn13)SSSSS2 [Compound 6]
a: False

q: GI50 strictly < 400 nM for this compound? CCOc1c2c(c3ccc(C(=O)N4CCCCC4)cn13)SSSSS2 [Compound 2]
a: False

---

- Test system: HAP-1.KO.GPx1
- ASSAY METHOD TEXT: crystal violet proliferation assay
- Type: cell-based
- REPORTED CONDITIONS: Homo sapiens, 96 h, normoxia, read-out: GI50 CV mean
METRIC: GI50 (nM)
Just the number in nM, nothing appended.

Past entries and their recorded results:
smiles_notation=CCOc1c2c(c3ccc(C(=O)N4CCCCC4)cn13)SSSSS2 test_value=173
smiles_notation=CCOc1c2c(c3ccc(C(=O)N4CCOCC4)cn13)SSSSS2 test_value=68
smiles_notation=CCOc1c2c(c3cnc4[nH]c(-c5ccc(OC)cc5)cc4n13)SSSSS2 test_value=313
smiles_notation=CCOc1c2c(c3ccc(C(=O)N4CCN(S(=O)(=O)c5ccc(C)cc5)CC4)cn13)SSSSS2 test_value=524
smiles_notation=CCOc1c2c(c3ccc(C(=O)N4CCN(C(=O)c5ccc(F)cc5)CC4)cn13)SSSSS2 test_value=144

Kindly consider the entry below.
get_value(item= CCOc1c2c(c3ccc(C(=O)N(CC)CC)cn13)SSSSS2 , readout=GI50) returns 116

---

- Tested on: RT-4
- ASSAY METHOD TEXT: MTT cell viability assay
- Type: cell-based
- REPORTED CONDITIONS: Homo sapiens, 48 h, hypoxic (1% O2), read-out: IC50 MTT-H mean
METRIC: pIC50
API: returns pIC50 as number; meaning -log10 of concentration in mol/L.

smiles_notation=CCOc1c2c(c3cnc4[nH]c(-c5ccc(OC)cc5)cc4n13)SSSSS2 test_value=6.28
smiles_notation=CCOc1c2c(c3ccc(C(=O)N4CCOCC4)cn13)SSSSS2 test_value=5.64
smiles_notation=CCOc1c2c(c3ccc(C(=O)N(CC)CC)cn13)SSSSS2 test_value=5.65
smiles_notation=CCOc1c2c(c3ccc(C(=O)N4CCCCC4)cn13)SSSSS2 test_value=5.23
smiles_notation=CCOc1c2c(c3ccc(C(=O)N4CCN(C(=O)c5ccc(F)cc5)CC4)cn13)SSSSS2 test_value=5.76

Field pIC50 (system: RT-4) for entry CCOc1c2c(c3ccc(C(=O)N4CCN(S(=O)(=O)c5ccc(C)cc5)CC4)cn13)SSSSS2 = 5.30
